Numbers sourced from patent US20100196469A1.

- protocol notes: Stability after preparation and after 3 months in HDPE containers, normal and intermediate conditions (impurities)
- Assay type: physicochemical
- applied conditions: 3 months 25° C./60% RH; total impurities
- Procedure: One of the main objects of the present invention was to prepare a product with acceptable stability. For this reason 3 batches of each composition were exposed to normal, intermediate and accelerated stability studies according to the current ICH guidelines. Subsequently, the tablets of compositions 2 were packed into white opaque, HDPE plastic […] C.±2° C. and relative humidity of 65%±5% for intermediate conditions. […]
experimental endpoint: Total (%)

* CC(C)c1c(C(=O)Nc2ccccc2)c(-c2ccccc2)c(-c2ccc(F)cc2)n1CC[C@@H](O)C[C@@H](O)CC(=O)O (relative stereo) [Atorvastatin, trihydrate] | 1.96
